Data credit: patent US5811533

A collection of binders and their measured pKd
# tested on: VEGF165 (recombinant human vascular endothelial growth factor, 165 aa form) (Homo sapiens, UniProt P15692-4 P15692-4:27-191)
# Sequence (P15692 other isoform, or with tags, fused parts or gaps): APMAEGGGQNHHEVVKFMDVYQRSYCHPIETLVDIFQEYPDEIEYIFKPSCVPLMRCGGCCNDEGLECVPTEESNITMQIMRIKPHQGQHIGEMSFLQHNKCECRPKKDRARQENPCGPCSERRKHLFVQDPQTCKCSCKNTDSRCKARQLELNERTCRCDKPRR
# experimental protocol: filter
# test parameters: tags: gift from N. Ferrara, Genentech; chain copies: 2 (dimer, stated)
Expect pKd as a plain number equal to -log10 of the molar concentration.

Lab book: pKd of ssDNA 10 (ssDNA) DNA: ATCCGCCTGATTAGCGATACTGTACCATCCACGGTTTACGTGGACAAGAGGGCCCTGGTACACTTGAGCAAAATCACCTGCAGGGG noted as 9.00

Further cases:
Lookup result for ssDNA 6 (ssDNA) DNA: ATCCGCCTGATTAGCGATACTATACACCCGGCGGGCCTACCGGATCGTTGATTTCTCTCCACTTGAGCAAAATCACCTGCAGGGG ; measured pKd: 9.00

In plain terms, ssDNA b80 (ssDNA) DNA: CTACCTACGATCTGACTAGCCCGTCGCGTGACTATAACCACACGCAGACTAGAGTGCAGGGCTTAGCTTACTCTCATGTAGTTCCT has a documented pKd of 8.09

// pKd lookup, binder = GCAAGGGGTCCTGCCGAATGGGGGAATACGCTAGCCGAAA (ssDNA) [88t] , result: 7.72

Per the record, ssDNA 33 (ssDNA) DNA: ATCCGCCTGATTAGCGATACTTCAAGCACTCCCGTCTTCCAGACAAGAGTGCAGGGCCTCTACTTGAGCAAAATCACCTGCAGGGG has pKd of 8.70

For record GTAGTTCCTTTAGGACTAGAGGGCCGCCTAC (ssDNA) [15t] the listed pKd is 8.52

Looking up ssDNA b88 (ssDNA) DNA: CTACCTACGATCTGACTAGCGCAAGGGGTCCTGCCGAATGGGGGAATACGCTAGCCGAAAGCTTACTCTCATGTAGTTCCT , I found its pKd recorded as 7.47

Notebook: ssDNA b59 (ssDNA) DNA: CTACCTACGATCTGACTAGCAACACGAGCATGTGGGGTCCCTTCCGAATGGGGGGTACAGGCTTAGCTTACTCTCATGTAGTTCCT , pKd read as 7.04

Looking up ssDNA 15 (ssDNA) DNA: ATCCGCCTGATTAGCGATACTACCGCTGTGTAGTTCCTTTAGGACTAGAGGGCCGCCTACACTTGAGCAAAATCACCTGCAGGGG , I found its pKd recorded as 9.06

Value of pKd reported for the binder ssDNA b95 (ssDNA) DNA: CTACCTACGATCTGACTAGCCCACTGCATAGAGAACTGGATCGACGGTCCAAAGTTCGGTGCTTAGCTTACTCTCATGTAGTTCCT is 9.05

Reported pKd ( ssDNA b53 (ssDNA) DNA: CTACCTACGATCTGACTAGCGCAAGGGCATCTCGGAATCGGTTAATCTGACTTGCAATACGCTTAGCTTACTCTCATGTAGTTCCT ) = 8.60

// field: pKd; key: CGAGGTCCCCCACTGGATAGAGTTGTTGAAACAACGGTGCGCTTA (ssDNA) [65t] ; value = 9.49

Entry under test: ssDNA b60 (ssDNA) DNA: CTACCTACGATCTGACTAGCCCACCGCAGAGTGTTACACCCCATAGGAGAAGTCCGGATGGCTTAGCTTACTCTCATGTAGTTCCT . Its pKd was 7.59

response.value for GTACCATCCACGGTTTACGTGGACAAGAGGGCCCTGGTAC (ssDNA) [10t] (field: pKd) = 8.30

// pKd lookup, binder = ssDNA 23 (ssDNA) DNA: ATCCGCCTGATTAGCGATACTGGGCATCTAACCCAGACCTACCGGAACGTTATCGCTTGTGACTTGAGCAAAATCACCTGCAGGGG , result: 9.12

pKd in this record for GGAGGTGCGTTGTCCGAAGGGGTCGTTAGTCACCTC (ssDNA) [85t] : 9.52

Per the record, ssDNA b99 (ssDNA) DNA: CTACCTACGATCTGACTAGCCACGATAATCCTCCGAAAGCGTTGTCCGAATGGGTCGTTAGCTTAGCTTACTCTCATGTAGTTCCT has pKd of 7.47

// recorded pKd for ssDNA b56 (ssDNA) DNA: CTACCTACGATCTGACTAGCGCAGGGCCACGTCTATTTAGACTAGAGTGCAGTGGTTCGCTTACTCTCATGTAGTTCCT : 9.30

pKd recorded for this binder, ssDNA b65 (ssDNA) DNA: CTACCTACGATCTGACTAGCCGAGGTCCCCCACTGGATAGAGTTGTTGAAACAACGGTGCGCTTAGCTTACTCTCATGTAGTTCCT , is 9.28
